- System: Candida albicans
- ASSAY_REMARKS: Binding affinity to Candida albicans CaMdr1p expressed in yeast AD1-8u
Calls of active or inactive are those of the source. The rule behind the calls is not given here.
Answer with one of the outcomes given here: TRUE (active), FALSE (inactive)

- COMPOUND: "COc1c(C)c2c(c(O)c1C/C=C(\\C)CCC(=O)O)C(=O)OC2"
  MEASURED_ON: "Candida albicans"
  ASSIGNED_CLASS: "FALSE"
- COMPOUND: "CO[C@H]1/C=C/O[C@@]2(C)Oc3c(C)c(O)c4c(O)c(c(/C=N/N5CCN(C)CC5)c(O)c4c3C2=O)NC(=O)/C(C)=C\\C=C\\[C@H](C)[C@H](O)[C@@H](C)[C@@H](O)[C@@H](C)[C@H](OC(C)=O)[C@@H]1C"
  MEASURED_ON: "Candida albicans"
  ASSIGNED_CLASS: "FALSE"
- COMPOUND: "CC[C@]1(O)C[C@@H]2CN(CCc3c([nH]c4ccccc34)[C@@](C(=O)OC)(c3cc4c(cc3OC)N(C)[C@H]3[C@@](O)(C(=O)OC)[C@H](OC(C)=O)[C@]5(CC)C=CCN6CC[C@]43[C@@H]65)C2)C1"
  MEASURED_ON: "Candida albicans"
  ASSIGNED_CLASS: "FALSE"
- COMPOUND: "N#CC(C#N)=NNc1cccc(Cl)c1 [CARBONYL CYANIDE M-CHLOROPHENYLHYDRAZONE]"
  MEASURED_ON: "Candida albicans"
  ASSIGNED_CLASS: "FALSE"
- COMPOUND: "c1ccc(CNc2ncnc3[nH]cnc23)cc1"
  MEASURED_ON: "Candida albicans"
  ASSIGNED_CLASS: "FALSE"

Could you now look at the following compound, please?
Given CC(=O)Nc1c2sscc-2n(C)c1=O , state the outcome it received in this test.
TRUE

----------
- Tested on: Candida albicans
- ASSAY_REMARKS: Binding affinity to Candida albicans CaMdr1p expressed in yeast AD1-8u
Active and inactive are the calls of the source. The rule behind the calls is not given here.
Respond with a class label; see y for active, n for inactive

- COMPOUND: "C[C@@H]1O[C@@H](O[C@H]2C[C@@H](O)[C@]3(CO)[C@H]4[C@H](O)C[C@]5(C)[C@@H](C6=CC(=O)OC6)CC[C@]5(O)[C@@H]4CC[C@]3(O)C2)[C@H](O)[C@H](O)[C@H]1O"
  ASSIGNED_CLASS: "n"
- COMPOUND: "C[C@@H]1C[C@H]2[C@@H]3CCC4=CC(=O)C=C[C@]4(C)[C@@]3(F)[C@@H](O)C[C@]2(C)[C@@]1(O)C(=O)CO"
  ASSIGNED_CLASS: "n"
- COMPOUND: "CO[C@@H]1[C@@H](OC(N)=O)[C@@H](O)[C@H](Oc2ccc3c(O)c(NC(=O)c4ccc(O)c(CC=C(C)C)c4)c(=O)oc3c2C)OC1(C)C"
  ASSIGNED_CLASS: "n"

Please share the test call associated with C[C@]12CC[C@@H]3c4ccc(OS(=O)(=O)O)cc4CC[C@H]3[C@@H]1CCC2=O .
n

Each compound tested received a call. Report the one for CON(C)C(=O)Nc1ccc(Br)c(Cl)c1 .
n

----------
- Test system: Candida albicans
- ASSAY_REMARKS: Binding affinity to Candida albicans CaCdr1p expressed in yeast AD1-8u
Active and inactive are the calls of the source. No rule for the calls is given here.
Answer with one of the outcomes T for active, F for inactive

- MOLECULE: "COc1cc2ncnc(Nc3ccc(F)c(Cl)c3)c2cc1OCCCN1CCOCC1"
  MEASURED_ON: "Candida albicans"
  ASSIGNED_CLASS: "T"
- MOLECULE: "CCN(CC)C(=S)SSC(=S)N(CC)CC"
  MEASURED_ON: "Candida albicans"
  ASSIGNED_CLASS: "T"

For this compound, state the assay outcome: CC(=O)[C@H]1CC[C@H]2[C@@H]3CCC4=CC(=O)CC[C@]4(C)[C@H]3CC[C@]12C
F

I would be grateful if you could indicate the recorded call for CC(=O)O[C@H]1C(=O)[C@@]2(C)[C@H]([C@H](OC(=O)c3ccccc3)[C@]3(O)C[C@H](OC(=O)[C@H](O)[C@@H](NC(=O)c4ccccc4)c4ccccc4)C(C)=C1C3(C)C)[C@]1(OC(C)=O)CO[C@@H]1C[C@@H]2O .
F

Hi team, can someone confirm the assay call for CO[C@@H]1[C@@H](OC(N)=O)[C@@H](O)[C@H](Oc2ccc3c(O)c(NC(=O)c4ccc(O)c(CC=C(C)C)c4)c(=O)oc3c2C)OC1(C)C ?
F

In this assay, the call recorded for Nc1nc(=O)[nH]cc1F was what?
F

Per the records of this test, what outcome belongs to COc1cc2c(c(OC)c1OC)-c1ccc(OC)c(=O)cc1[C@@H](NC(C)=O)CC2 ?
F
